Assay protocol: NCI Yeast Anticancer Drug Screen. Data for the mlh1 rad18 strain (AID 175)
Condition: S. cerevisiae mlh1 rad18 strain growth inhibition; at 50.0 µM
The panel holds about 79,000 compounds, 15% with a hit somewhere; the sample as a whole holds those more often. The source made the active and inactive calls. Cut-off read from the data, not from the text of the source: active = growth inhibition above about 70%; inactive = the rest.
Hello, when you answer, please use one of the following outcomes: active, inactive

Query :: Dear colleague, could you share the recorded outcome for CN1CCN(CCSC2Cc3cc(Cl)ccc3Sc3ccccc32)CC1 (stereo unspecified) when you have a moment?
Result :: active

Query :: Dear colleague, could you share the recorded outcome for `Oc1cc(Br)cc2cccnc12` when you have a moment?
Result :: active

Query :: Dear colleague, could you share the recorded outcome for `CCCCCCCCCCCC(=O)OC/C=C/COC(=O)c1ccccc1` when you have a moment?
Result :: inactive

Query :: Dear colleague, could you share the recorded outcome for `O=C(Nc1cccc(C(F)(F)F)c1)C(Cl)=C(Cl)Cl` when you have a moment?
Result :: active

Query :: Dear colleague, could you share the recorded outcome for `[Pt].c1ccc([PH+](CC[PH+](CC[PH+](c2ccccc2)c2ccccc2)CC[PH+](c2ccccc2)c2ccccc2)c2ccccc2)cc1` when you have a moment?
Result :: active

Query :: Dear colleague, could you share the recorded outcome for CN1c2ccccc2C(=O)NC1c1ccc([N+](=O)[O-])s1 (stereo unspecified) when you have a moment?
Result :: active

Query :: Dear colleague, could you share the recorded outcome for `O=C(Cc1ccc(C2=NCCN2)cc1[N+](=O)[O-])c1ccc(C2=NCCN2)cc1` when you have a moment?
Result :: inactive

Query :: Dear colleague, could you share the recorded outcome for `Cn1ncc2c(NCc3ccc(Cl)cc3)nc(Cl)nc21` when you have a moment?
Result :: active

Query :: Dear colleague, could you share the recorded outcome for `O=C1C(Cl)=C(Cl)C(=C2C(Cl)=C(Cl)C(=O)C(Cl)=C2Cl)C(Cl)=C1Cl` when you have a moment?
Result :: active

Query :: Dear colleague, could you share the recorded outcome for `COc1c(O)cc2c(c1O)C(=O)C1=C(CCCC1)C2=O` when you have a moment?
Result :: inactive

Query :: Dear colleague, could you share the recorded outcome for COC(=O)C(O)(/C(=N\O)c1ccccc1)c1ccccc1 (stereo unspecified) when you have a moment?
Result :: inactive

----------
Assay protocol: NCI Yeast Anticancer Drug Screen. Data for the cln2 rad14 strain (AID 165)
Condition: S. cerevisiae cln2 rad14 strain, at 50.0 µM (retest, dose inferred, filed as 5.0), hits give high values
The panel holds about 79,000 compounds, 15% with a hit somewhere; the sample as a whole holds those more often.
Think of 80% as a floor: if growth inhibition stands on it or above, it is rule met; beneath it, rule not met.

Query :: Has `N#Cc1c(-c2ccc(Cl)c(Cl)c2)c(-c2ccc(Cl)c(Cl)c2)nn(CC(=O)O)c1=O` a recorded growth inhibition greater than or equal to 80%?
Result :: rule met

Query :: Has `O=c1c2ccccc2sc2cccc(NCCCN3CCN(CCCNc4cccc5sc6ccccc6c(=O)c45)CC3)c12` a recorded growth inhibition greater than or equal to 80%?
Result :: rule not met

Query :: Has `C=C(C)COc1ccccc1C(OCC)OCC` a recorded growth inhibition greater than or equal to 80%?
Result :: rule not met

Query :: Has `CC(C)=CCC/C(C)=C/CC/C(C)=C/CSc1ccccc1C(=O)O` a recorded growth inhibition greater than or equal to 80%?
Result :: rule not met

Query :: Has `C/C(=N\NC(=S)NC12CC3CC(CC(C3)C1)C2)c1ccccn1` a recorded growth inhibition greater than or equal to 80%?
Result :: rule met
